ASSAY_SUMMARY: Oral bioavailability in ICR mouse
Format: ADME, organism-based
EXPERIMENTAL_CONTEXT: in vivo
ENDPOINT_LABEL: bioavailability (%)
Respond with the bare value in %.

Answer with the recorded bioavailability of CN1CCC(O)(C#Cc2ccc(F)c(-c3c[nH]c4cnc(N)nc34)c2)C1=O (configuration not stated) only. 7

* * *

Examples of compounds with documented pIC50 follow.
TARGET_OR_TEST_SYSTEM: Mitogen-activated protein kinase kinase kinase 14 (Homo sapiens)
ASSAY_SUMMARY: Inhibition of recombinant human N-terminal GST-tagged NIK (318 to 947 residues) expressed in baculovirus infected Sf9 cells using ultrapure ATP as substrate measured after 1 hr by ADP-glo assay
Just the number, please; pIC50 means minus log10 of the concentration in mol/L.

# annotated cases, reported pIC50 shown
| COMPOUND | ENDPOINT_LABEL | OBSERVED_VALUE |
| --- | --- | --- |
| COc1ccc(C#CC(C)(O)c2nccs2)cc1-c1c[nH]c2cnc(N)nc12 (stereo not given) | pIC50 | 6.92 |
| Cc1ccc(-n2ccc3cnc(N)nc32)cc1C#CC(C)(O)c1nccs1 (stereo not given) | pIC50 | 4.93 |
| Nc1ncc2ccn(-c3ccnc(C#CC4(O)CCCCC4)c3)c2n1 | pIC50 | 5.80 |
| COc1ccc(C#CC(C)(O)c2nccs2)cc1-n1ccc2cnc(N)nc21 (stereo not given) | pIC50 | 6.67 |
| CC(O)(C#Cc1cccc(-n2cc(Cl)c3cnc(N)nc32)c1)c1nccs1 (stereo not given) | pIC50 | 5.69 |
| Nc1ncc2ccn(-c3ccnc(C#CC4(O)CCCC4)c3)c2n1 | pIC50 | 6.63 |

Return pIC50 (reported value) for this compound: CC(O)(C#Cc1cc(-n2ccc3cnc(N)nc32)ccn1)c1cnccn1 (stereo not given) 5.79

Supply reported pIC50 belonging to this compound: CC(O)(C#Cc1cc(F)cc(-c2c[nH]c3cnc(N)nc23)c1)c1nccs1 (stereo not given) 6.50

In one line, give reported pIC50 of the entry COc1nc(N)nc2c1ccn2-c1cccc(C#CC(C)(O)c2nccs2)c1 (stereo not given) . 5.60

Specify measured pIC50 for CC(O)(C#Cc1cc(-n2ccc3cnc(N)nc32)c(F)cc1F)c1nccs1 (stereo not given) . 6.19

* * *

ASSAY_SUMMARY: AUC (0 to t) in ICR mouse at 15 mg/kg, po by LC-MS/MS analysis
Format: ADME, organism-based
EXPERIMENTAL_CONTEXT: in vivo
ENDPOINT_LABEL: AUC(0-t) (µg·h/mL)
Report the value in µg·h/mL with no unit label.

Please list AUC(0-t) recorded for the molecule C[C@@](O)(C#Cc1ccc(F)c(-c2c[nH]c3cnc(N)nc23)c1)c1nccs1 0.348

* * *

TARGET_OR_TEST_SYSTEM: Mitogen-activated protein kinase kinase kinase 14 (Homo sapiens, UniProt Q99558)
Sequence (Q99558 whole entry, the tested form may be a part): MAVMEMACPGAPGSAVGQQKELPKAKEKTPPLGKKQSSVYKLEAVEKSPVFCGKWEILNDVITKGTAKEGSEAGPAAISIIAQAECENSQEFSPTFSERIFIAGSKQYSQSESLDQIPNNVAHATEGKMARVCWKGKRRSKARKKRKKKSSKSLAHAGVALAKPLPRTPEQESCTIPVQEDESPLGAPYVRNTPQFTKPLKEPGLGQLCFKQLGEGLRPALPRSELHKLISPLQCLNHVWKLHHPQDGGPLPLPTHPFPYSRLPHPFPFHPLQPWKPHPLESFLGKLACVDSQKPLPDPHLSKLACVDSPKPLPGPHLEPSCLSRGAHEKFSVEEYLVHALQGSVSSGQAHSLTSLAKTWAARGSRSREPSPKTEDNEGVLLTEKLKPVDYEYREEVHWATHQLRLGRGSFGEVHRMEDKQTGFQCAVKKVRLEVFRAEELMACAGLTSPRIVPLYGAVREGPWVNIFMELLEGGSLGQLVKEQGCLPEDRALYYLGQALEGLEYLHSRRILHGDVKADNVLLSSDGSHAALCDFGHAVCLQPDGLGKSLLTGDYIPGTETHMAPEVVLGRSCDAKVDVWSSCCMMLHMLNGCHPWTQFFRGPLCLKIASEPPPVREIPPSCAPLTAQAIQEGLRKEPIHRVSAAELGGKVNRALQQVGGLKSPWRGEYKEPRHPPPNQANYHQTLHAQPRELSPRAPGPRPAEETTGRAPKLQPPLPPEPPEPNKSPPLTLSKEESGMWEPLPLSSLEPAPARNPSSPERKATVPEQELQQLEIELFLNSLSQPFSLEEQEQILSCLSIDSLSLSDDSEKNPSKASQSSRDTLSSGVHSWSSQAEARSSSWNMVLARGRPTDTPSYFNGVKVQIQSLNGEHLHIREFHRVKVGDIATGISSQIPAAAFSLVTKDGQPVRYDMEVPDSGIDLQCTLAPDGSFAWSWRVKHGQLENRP
ASSAY_SUMMARY: Inhibition of recombinant human N-terminal GST-tagged NIK (318 to 947 residues) expressed in baculovirus infected Sf9 cells using ultrapure ATP as substrate measured after 1 hr by ADP-glo assay
Catalogue of log10 IC50 readings, one per entry.
Use the decimal logarithm of IC50 (nM).

These solved cases illustrate the format of a correct answer.
| COMPOUND | OBSERVED_VALUE |
| --- | --- |
| CC(O)(C#Cc1cccc(-n2ccc3cnc(N)nc32)c1)c1nccs1 (stereo unspecified) | 2.48 |
| CC(O)(C#Cc1cc(-n2ccc3cnc(N)nc32)ccc1F)c1nccs1 (stereo unspecified) | 2.31 |
| CC(O)(C#Cc1cc(-n2ccc3cnc(N)nc32)c(F)cn1)c1nccs1 (stereo unspecified) | 1.94 |
| C[C@@](O)(C#Cc1ccc(F)c(-c2c[nH]c3cnc(N)nc23)c1)c1nccs1 | 0.96 |

Next up:
Quickly give me recorded log10 IC50 for Cc1nc(N)nc2c1ccn2-c1ccnc(C#CC2(O)CCN(C)C2=O)c1 (stereo unspecified) 1.93
